EXPERIMENTAL_SYSTEM: HRgpA-6H (Porphyromonas gingivalis) (UniProt P28784)
PROTOCOL_DETAILS: ELISA, FASEBA Fab supernatant on coated HRgpA-6H
Provide the reported OD450 nm of each item.
Give a plain numeric answer without units written out.

Tell me the measured OD450 nm of KB001 mouse Fab variant VL I98L (Fab, V domains shown) VH: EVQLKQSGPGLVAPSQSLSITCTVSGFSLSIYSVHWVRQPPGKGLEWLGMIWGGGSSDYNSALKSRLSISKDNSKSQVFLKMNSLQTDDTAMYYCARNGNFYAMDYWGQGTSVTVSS VL: QIVLTQSPAIMSASLGERVTMTCTASSSVSSSFLHWYQQKPGSSPQLWIYSTSNLASGVPARFSGSGSGTSYSLTISSMEAEDAATYYCHQYHHSPYLYTFGGGTKLEIK , please.
0.836

Tell me the measured OD450 nm of KB001 mouse Fab variant VL Y97Q (Fab, V domains shown) VH: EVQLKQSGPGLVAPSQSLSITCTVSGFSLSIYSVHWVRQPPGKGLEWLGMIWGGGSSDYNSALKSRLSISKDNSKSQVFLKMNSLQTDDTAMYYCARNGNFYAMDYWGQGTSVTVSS VL: QIVLTQSPAIMSASLGERVTMTCTASSSVSSSFLHWYQQKPGSSPQLWIYSTSNLASGVPARFSGSGSGTSYSLTISSMEAEDAATYYCHQYHHSPQIYTFGGGTKLEIK , please.
0.687

Tell me the measured OD450 nm of KB001 mouse Fab variant VL S57R (Fab, V domains shown) VH: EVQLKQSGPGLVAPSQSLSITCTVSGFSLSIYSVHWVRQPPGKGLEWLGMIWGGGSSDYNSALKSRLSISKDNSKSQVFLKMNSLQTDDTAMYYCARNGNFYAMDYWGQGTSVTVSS VL: QIVLTQSPAIMSASLGERVTMTCTASSSVSSSFLHWYQQKPGSSPQLWIYSTSNLARGVPARFSGSGSGTSYSLTISSMEAEDAATYYCHQYHHSPYIYTFGGGTKLEIK , please.
0.746
